- tgt: KRAS G12C (Homo sapiens, UniProt P01116+P62937, G12C)
- Sequence (P01116 1-169 isoform P01116-2 G12C limits assumed): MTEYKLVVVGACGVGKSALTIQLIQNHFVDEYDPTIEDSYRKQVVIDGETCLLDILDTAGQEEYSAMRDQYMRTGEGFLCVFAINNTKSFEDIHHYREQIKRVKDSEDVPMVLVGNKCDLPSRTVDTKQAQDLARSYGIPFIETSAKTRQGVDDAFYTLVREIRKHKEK
- Sequence (P62937 whole entry): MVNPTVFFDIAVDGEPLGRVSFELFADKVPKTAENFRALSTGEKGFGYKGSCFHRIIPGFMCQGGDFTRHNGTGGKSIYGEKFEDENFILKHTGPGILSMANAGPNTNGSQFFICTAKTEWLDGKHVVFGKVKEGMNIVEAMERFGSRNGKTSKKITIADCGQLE
- test_description: Ras-Raf disruption/FRET/MOA assay, KRAS G12C
- Type: biochemical
- experimental_conditions: disruption of BRAF RBD binding, with Cyclophilin A; read-out: KRAS G12C FRET IC50
Recorded IC50 for the following compounds
observable: IC50

* CCn1c(-c2cnccc2COC)c2c3cc(ccc31)-c1cc(O)cc(c1)C[C@H](NC(=O)[C@H](C(C)C)N(C)C(=O)CN(C)C(=O)C1CN1S(C)(=O)=O)C(=O)N1CCC[C@H](N1)C(=O)OCC(C)(C)C2 (some centres unmarked) | 10 to 100 nM
* CCn1c(-c2cccnc2[C@H](C)OC)c2c3cc(ccc31)-c1cccc(c1)C[C@H](NC(=O)[C@H](C(C)C)N1CC[C@H](CN=C=NCCOC)C1)C(=O)N1CCC[C@H](N1)C(=O)OCC(C)(C)C2 | 100 to 1000 nM
* CCn1c(-c2cnccc2COC)c2c3cc(ccc31)-c1cc(O)cc(c1)C[C@H](NC(=O)[C@H](C(C)C)N(C)C(=O)CN(C)C(=O)C1CN1C(C)=O)C(=O)N1CCC[C@H](N1)C(=O)OCC(C)(C)C2 (some centres unmarked) | 10 to 100 nM
* CCn1c(-c2cccnc2[C@H](C)OC)c2c3cc(ccc31)-c1csc(n1)C[C@H](NC(=O)[C@H](C(C)C)N(C)C(=O)N1CCC[C@H](N(C)C(=O)[C@H]3CN3)C1)C(=O)N1CCC[C@H](N1)C(=O)OCC(C)(C)C2 (atropisomer, axis not shown) | 100 to 1000 nM
* CCn1c(-c2cnccc2COC)c2c3cc(ccc31)-c1cc(O)cc(c1)C[C@H](NC(=O)[C@H](C(C)C)N(C)C(=O)CN(C)C(=O)[C@@H]1[C@H](C(=O)OC)N1[S@@+]([O-])C(C)(C)C)C(=O)N1CCC[C@H](N1)C(=O)OCC(C)(C)C2 (some centres unmarked) | 10 to 100 nM
* CCn1c(-c2cnccc2COC)c2c3cc(ccc31)-c1cc(O)cc(c1)C[C@H](NC(=O)[C@H](C(C)C)N(C)C(=O)CN(C)C(=O)[C@H]1[C@@H](C3CC3)N1[S@+]([O-])C(C)(C)C)C(=O)N1CCC[C@H](N1)C(=O)OCC(C)(C)C2 (some centres unmarked) | 10 to 100 nM
* CCn1c(-c2cccnc2[C@H](C)OC)c2c3cc(ccc31)-c1cc(O)cc(c1)C[C@H](NC(=O)[C@H](C(C)C)N(C)C(=O)[C@@H]1CN(C(=O)[C@H]3CN3)C[C@@H]1C)C(=O)N1CCC[C@H](N1)C(=O)OCC(C)(C)C2 | < 10 nM
* CCn1c(-c2cnccc2COC)c2c3cc(ccc31)-c1cc(O)cc(c1)C[C@H](NC(=O)[C@@H](CN(C)C(=O)[C@H]1CN1)C(C)C)C(=O)N1CCC[C@H](N1)C(=O)OCC(C)(C)C2 | > 10000 nM

---

- Tested on: AsPC-1 (K-Ras G12D)
- test_description: CellTiter-Glo cell viability assay, AsPC-1
- Assay type: cell-based
- experimental_conditions: Homo sapiens, ASPC1, 120 h, read-out: AsPC-1 Cell Viability IC50, AsPC-1, K-Ras G12D, 5-day treatment
pIC50: −log10 of the molar value.
observable: pIC50

- CCn1c(-c2cccnc2[C@H](C)OC)c2c3cc(ccc31)-c1cc(O)cc(c1)C[C@H](NC(=O)[C@H](C(C)C)N(C)C(=O)CN(C)C(=O)[C@H]1N[C@@H]1C1COC1)C(=O)N1CCC[C@H](N1)C(=O)OCC(C)(C)C2: 5.00 to 6.00
- CCn1c(-c2cccnc2[C@H](C)OC)c2c3cc(ccc31)-c1cc(O)cc(c1)C[C@H](NC(=O)[C@H](C(C)C)N(C)C(=O)CN(C)C(=O)[C@H]1N[C@H]1C1COC1)C(=O)N1CCC[C@H](N1)C(=O)OCC(C)(C)C2: 5.00 to 6.00

---

- tgt: KRAS WT (Homo sapiens, UniProt P01116+P62937)
- Sequence (P01116 1-169 isoform P01116-2 limits assumed): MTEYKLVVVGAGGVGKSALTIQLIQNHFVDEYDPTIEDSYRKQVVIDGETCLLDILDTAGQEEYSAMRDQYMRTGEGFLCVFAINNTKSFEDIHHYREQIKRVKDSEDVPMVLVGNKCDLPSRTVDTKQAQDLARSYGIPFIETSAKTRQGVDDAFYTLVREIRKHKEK
- Sequence (P62937 whole entry): as the sequence (P62937 whole entry) above
- test_description: Ras-Raf disruption/FRET/MOA assay, KRAS WT
- Assay type: biochemical
- experimental_conditions: disruption of BRAF RBD binding, with Cyclophilin A; read-out: KRAS WT FRET IC50
- Text: Disruption of B-Raf Ras-Binding Domain (BRAF^RBD) Interaction with K-Ras by Compounds of the Invention (Also Called a FRET Assay or an MOA Assay) Note—The following protocol describes a procedure for monitoring disruption of K-Ras G12C (GMP-PNP) binding to BRAF^RBD by a compound of the invention. This protocol may also be executed substituting other Ras proteins or nucleotides, such as K-Ras G12D and K-Ras G13D. […]
Below is a list of entries, each paired with its recorded IC50 value.
observable: IC50

* CCn1c(-c2cnccc2COC)c2c3cc(ccc31)-c1cc(O)cc(c1)C[C@H](NC(=O)[C@H](C(C)C)N(C)C(=O)CN(C)C(=O)[C@H]1CN1C(=O)OC)C(=O)N1CCC[C@H](N1)C(=O)OCC(C)(C)C2 [Example 38] | 100 to 1000 nM
* CCn1c(-c2cnccc2COC)c2c3cc(ccc31)-c1cc(O)cc(c1)C[C@H](NC(=O)[C@H](C(C)C)N(C)C(=O)CN(C)C(=O)C1CN1C(C)=O)C(=O)N1CCC[C@H](N1)C(=O)OCC(C)(C)C2 (stereo partly shown) [Compound 14] | 100 to 1000 nM
* CCn1c(-c2cccnc2[C@H](C)OC)c2c3cc(ccc31)-c1cc(O)cc(c1)C[C@H](NC(=O)[C@H](C(C)C)N1CCCC3(CN(C(=O)[C@@H]4CN4)C3)C1=O)C(=O)N1CCC[C@H](N1)C(=O)OCC(C)(C)C2 [Compound 306] | 10 to 100 nM
* CCn1c(-c2cnccc2COC)c2c3cc(ccc31)-c1cc(O)cc(c1)C[C@H](NC(=O)[C@H](C(C)C)N(C)C(=O)CN(C)C(=O)[C@@H]1CN1C(=O)OC)C(=O)N1CCC[C@H](N1)C(=O)OCC(C)(C)C2 [Compound 39] | 100 to 1000 nM

---

- tgt: KRAS G12V (Homo sapiens, UniProt P01116+P62937, G12V)
- Sequence (P01116 1-169 isoform P01116-2 G12V limits assumed): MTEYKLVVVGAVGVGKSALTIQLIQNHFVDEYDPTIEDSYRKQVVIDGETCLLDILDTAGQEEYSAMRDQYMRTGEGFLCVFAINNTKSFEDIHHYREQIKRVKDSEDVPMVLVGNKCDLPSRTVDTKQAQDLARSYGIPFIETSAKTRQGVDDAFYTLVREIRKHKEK
- Sequence (P62937 whole entry): as the sequence (P62937 whole entry) above
- test_description: Ras-Raf disruption/FRET/MOA assay, KRAS G12V
- Assay type: biochemical
- experimental_conditions: disruption of BRAF RBD binding, with Cyclophilin A; read-out: KRAS G12V FRET IC50
IC50 for assorted compounds
observable: IC50

* CCn1c(-c2cccnc2[C@H](C)OC)c2c3cc(ccc31)-c1cc(O)cc(c1)C[C@H](NC(=O)[C@H](C(C)C)N1CC[C@@]3(CCCN(C(=O)[C@H]4CN4)C3)C1=O)C(=O)N1CCC[C@H](N1)C(=O)OCC(C)(C)C2 [Compound 199] | 100 to 1000 nM
* CCn1c(-c2cccnc2[C@H](C)OC)c2c3cc(ccc31)-c1cc(CF)cc(c1)C[C@H](NC(=O)[C@H](C1CCCC1)N1CC[C@]3(CCN(C(=O)[C@@H]4N[C@@H]4C4CC4)C3)C1=O)C(=O)N1CCC[C@H](N1)C(=O)OCC(C)(C)C2 [Compound 321] | 100 to 1000 nM
* CCn1c(-c2cccnc2[C@H](C)OC)c2c3cc(ccc31)-c1cc(O)cc(c1)C[C@H](NC(=O)[C@H](C(C)C)N(C)C(=O)N1CCN(C(=O)[C@@H]3CN3)CC1)C(=O)N1CCC[C@H](N1)C(=O)OCC(C)(C)C2 (atropisomer, axis not shown) [Compound 197] | 10 to 100 nM
* CCn1c(-c2cnccc2COC)c2c3cc(ccc31)-c1cc(O)cc(c1)C[C@H](NC(=O)[C@H](C(C)C)N(C)C(=O)CN(C)C(=O)C1CN1S(C)(=O)=O)C(=O)N1CCC[C@H](N1)C(=O)OCC(C)(C)C2 (some centres unmarked) [Compound 13] | 10 to 100 nM
* CCn1c(-c2cccnc2[C@H](C)OC)c2c3cc(ccc31)-c1cc(O)cc(c1)C[C@H](NC(=O)[C@H](C(C)C)N1CC[C@@]3(CCN(C[C@H]4CN4)C3)C1=O)C(=O)N1CCC[C@H](N1)C(=O)OCC(C)(C)C2 (single isomer, unassigned) [Example 139] | 10 to 100 nM
* CCn1c(-c2cnccc2COC)c2c3cc(ccc31)-c1cc(O)cc(c1)C[C@H](NC(=O)[C@H](C(C)C)N(C)C(=O)CN(C)C(=O)[C@@H]1[C@H](C3CC3)N1[S@@+]([O-])C(C)(C)C)C(=O)N1CCC[C@H](N1)C(=O)OCC(C)(C)C2 (some centres unmarked) [Compound 101] | 100 to 1000 nM
* CCn1c(-c2cccnc2[C@H](C)OC)c2c3cc(ccc31)-c1cc(O)cc(c1)C[C@H](NC(=O)[C@H](C(C)C)N1CC[C@]3(CCN(C[C@@H]4CN4)C3)C1=O)C(=O)N1CCC[C@H](N1)C(=O)OCC(C)(C)C2 [Compound 176] | 100 to 1000 nM
* CCn1c(-c2cccnc2[C@H](C)OC)c2c3cc(ccc31)-c1csc(n1)C[C@H](NC(=O)[C@H](C(C)C)N(C)C(=O)N1C3CCC1CN(C(=O)[C@H]1CN1)C3)C(=O)N1CCC[C@H](N1)C(=O)OCC(C)(C)C2 [Compound 303] | 100 to 1000 nM
